B1: Hairpin Ribozyme (parent)
chain: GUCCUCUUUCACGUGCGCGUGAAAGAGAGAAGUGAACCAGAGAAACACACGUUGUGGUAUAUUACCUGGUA

variants of: B1; experiment: self-cleavage, relative activity (ratio to wild type); higher = more cleavage; co-transcriptional
Please mark TRUE if the recorded self-cleavage is equal to or greater than 0.4, and FALSE if it falls below.

Please review the entries below; each comes with its answer.
> print(dat)
                                        seq  category.label
1  UUCCUCUUUCACGUGCGCGUGAAAGUGAGAAGUGAACCAGAGAAACACACGUUGUGGUAUAUUACCUGGUA [G1U A26U]           FALSE
2  GUCCGCUCUCACGUGCGCGUGAAAGAGAGAAGUGAACCAGAGAAACACACGUUGUGGUAUAUUACCUGGUA [U5G U8C]           FALSE
3  GUCCUCUAUGACGUGCGCGUGAAAGAGAGAAGUGAACCAGAGAAACACACGUUGUGGUAUAUUACCUGGUA [U8A C10G]            TRUE

Q: Assess whether reported self-cleavage for GUCCUCUUUCACGUGCGCGUGAAAGAGAGAAGUGAACCAGAGGAACACACGUUGUGGUAUAUUACCUAGUA [A43G G68A] sits at 0.4 or higher.
A: FALSE

Q: Assess whether reported self-cleavage for GUCCUCUUUCACGUGCGCAUGAAAGAGAGAAGUGAACCAGAGAAACUCACGUUGUGGUAUAUUACCUGGUA [G19A A47U] sits at 0.4 or higher.
A: FALSE

Q: Assess whether reported self-cleavage for GUCCUCUUUCACGUGCGCGUGAAAAAGAGAAGUGAACCAGAGAAACACACGCUGUGGUAUAUUACCUGGUA [G25A U52C] sits at 0.4 or higher.
A: TRUE

Q: Assess whether reported self-cleavage for GUCCUCUGUCACGUGCGCGUGAAAGAGAGAAGUGAACCAGAGAAACACACGUUGUGGUAUAUUACCUGGUU [U8G A71U] sits at 0.4 or higher.
A: TRUE

Q: Assess whether reported self-cleavage for GUCCUCUUUCACGAGCGCGUGAAAGAGAGAAGUGAACCAGAGAAACACACGUUGCGGUAUAUUACCUGGUA [U14A U55C] sits at 0.4 or higher.
A: FALSE

Q: Assess whether reported self-cleavage for GUCCUCUUUCACGUGCGCGUGAAUGAGAGAAGUGAACCAGAGAAACACACGUUGUGGUAUAUUACCUGGAA [A24U U70A] sits at 0.4 or higher.
A: TRUE

Q: Assess whether reported self-cleavage for GUCCUCUUCCAGGUGCGCGUGAAAGAGAGAAGUGAACCAGAGAAACACACGUUGUGGUAUAUUACCUGGUA [U9C C12G] sits at 0.4 or higher.
A: TRUE

Q: Assess whether reported self-cleavage for GUCCUCUUUCACGUGCGCGUGAAAGAGAGAAGUGAACCAAAGAAACACACGAUGUGGUAUAUUACCUGGUA [G40A U52A] sits at 0.4 or higher.
A: FALSE

Q: Assess whether reported self-cleavage for GUCCUCUUUCACGUGCGCGUGAAAGAGAGAAGUGAACCAGAGAAACACGAGUUGUGGUAUAUUACCUGGUA [A49G C50A] sits at 0.4 or higher.
A: FALSE

Q: Assess whether reported self-cleavage for GUCCUGUUUCACGUGCGCGGGAAAGAGAGAAGUGAACCAGAGAAACACACGUUGUGGUAUAUUACCUGGUA [C6G U20G] sits at 0.4 or higher.
A: FALSE

Q: Assess whether reported self-cleavage for GUCCUCUUUCACGUGCGCGUGAAAGAGAGAAGUGAACCAGAGAAACACACGUUGUGGUAUAUUACCUAGCA [G68A U70C] sits at 0.4 or higher.
A: FALSE

Q: Assess whether reported self-cleavage for GUCCUAUUUCACGUGCGCGGGAAAGAGAGAAGUGAACCAGAGAAACACACGUUGUGGUAUAUUACCUGGUA [C6A U20G] sits at 0.4 or higher.
A: TRUE

Q: Assess whether reported self-cleavage for GUCCUCUUUCACGUGCGCGUGAAAGAGAGAAGUGAACCCGAGUAACACACGUUGUGGUAUAUUACCUGGUA [A39C A43U] sits at 0.4 or higher.
A: FALSE

Q: Assess whether reported self-cleavage for GUCCUCUUUCACGUGCGCGUGAAAGAGAGAAGUCAACCAGAGAAACACACGUUGUGGUAUAUUACCGGGUA [G34C U67G] sits at 0.4 or higher.
A: TRUE

Q: Assess whether reported self-cleavage for GUCCUCUUUCACGUGCGCGUGAAAGAGAGAAGUGAACCGGAGAAACACACGGUGUGGUAUAUUACCUGGUA [A39G U52G] sits at 0.4 or higher.
A: FALSE

Q: Assess whether reported self-cleavage for GUCCUCUUUCACGAGCGCGUGAAAGAGAGAAGUGAACCAGAGAAACACACGUUGUGGUAUAUUACCUGGUA [U14A] sits at 0.4 or higher.
A: TRUE

Q: Assess whether reported self-cleavage for GUCCUCUUUCACGUGCGUGUGAAAGAGAGAAGUGAACCAGAGAAACACACGUUGGGGUAUAUUACCUGGUA [C18U U55G] sits at 0.4 or higher.
A: FALSE

Q: Assess whether reported self-cleavage for GUCCUCUUUCACGUGCGCGUGAAAGAGAGAAGUGAACCAGAGAAAUACACGUUGUCGUAUAUUACCUGGUA [C46U G56C] sits at 0.4 or higher.
A: FALSE

Q: Assess whether reported self-cleavage for GUCCUCUUUCACGUGCGCGUGAAAGAGAGAAGUGAACCAGAGAUACACACGUUAUGGUAUAUUACCUGGUA [A44U G54A] sits at 0.4 or higher.
A: FALSE

Source: the RNAGym collection of RNA variant scans (doi:10.7554/elife.80360)
